test system: LOX IMVI melanoma; test: NCI tumour cell line growth inhibition, 48 h
outcome.measure: log10(TGI) (log10 of the value in µM)
Record value = log10 of TGI given in µM.

Take a look at these entries with their results.
compound	obs.value
CCOC(=O)C(C)Sc1nnc(COc2ccc(Cl)cc2)n1-c1ccccc1 (centres undefined)	1.44
O=C1Nc2cc(-c3cccc(O)c3)ccc2/C1=C/c1ccc[nH]1	0.49
COC(=O)c1cccc2c3ccccc3c3ccccc3c12	1.91
COC(=O)c1c(C)[nH]c2c1C(=O)C(=O)c1nc(C)c(C)nc1-2	1.38

// next item, log10(TGI) requested
log10(TGI) for CC(C)(C)c1cc(C(=O)Nc2ccc(C(=O)NCCN)cc2)cc(C(C)(C)C)c1 is 0.50

###

test system: PC-3 prostate; test: NCI tumour cell line growth inhibition, 48 h
outcome.measure: TGI (µM)
Value expressed in µM; do not type the unit.

molecule	outcome.measure	obs.value
COCCOCCOCc1n(Cc2ccc3ccccc3c2)c2ccccc2[n+]1Cc1ccc2ccccc2c1	TGI	1.59

// molecule COc1cc2cc(C(=O)N3CC(CCl)c4ccc([N+](C)(C)Cc5ccc([N+](=O)[O-])cc5)cc43)[nH]c2c(OC)c1OC (configuration not stated) , assay PC-3 prostate, TGI value: 16.3

Fill in: PC-3 prostate TGI for Clc1ccc(C2CC(c3cccc(Nc4ccncc4)c3)=NN2c2ccc(Cl)cc2)cc1 (configuration not stated) = 3.08

###

In this section we review reported TGI values for a set of compounds.
test system: SF-268 CNS; test: NCI tumour cell line growth inhibition, 48 h

In plain terms, C=C1c2ccccc2C(=O)c2c1c1c(C(=O)OC)c(OC(=O)OCc3ccc([N+](=O)[O-])cc3)ccc1n2Cc1ccccc1 has a documented TGI of > 100 µM

response.value for CCOC(=O)Nc1nc2ccccc2[nH]1 (field: TGI) = > 100 µM

Reported TGI ( C=CC(COC(=O)C(C)(C)OC(C)=O)c1ccc(OC(=O)C(C)C)c(OC)c1 (stereo unspecified) ) = > 43.9 µM

Per the records, this compound ( Nc1nonc1-c1nc2ccccc2n1Cc1ccc(F)cc1 ) has TGI equal to > 100 µM

Query O=C1C2=Cc3ccccc3OC2(O)Oc2ccccc21 (stereo unspecified) yields TGI of > 100 µM

TGI for CCOC(=O)C(C)Sc1nnc(COc2ccc(Cl)cc2)n1-c1ccccc1 (stereo unspecified) is 34.7 µM

Please fill in: TGI reported for CN(C)CCCNc1ccc2nnn3c4ccc(OC(=O)c5ccccc5)cc4c(=O)c1c23 = 25.6 µM

response.value for N#Cc1c(C#N)c(-c2ccccc2)n(Cc2ccccc2)c1N (field: TGI) = > 100 µM

The recorded TGI for entry O=C1NC(N2CCCC(CO)C2)=N/C1=C\c1ccccc1 (stereo unspecified) equals > 100 µM

Recorded TGI (compound CN1CC(c2ccccc2)C(O)(C2(c3ccccc3)CN(C)CC(c3ccccc3)C2=O)C(c2ccccc2)C1 (stereo unspecified) ): > 100 µM

Kindly note the recorded TGI for c1ccc2c(c1)nc1n2CSCC1 , which is > 100 µM

# compound CC1=CC(C)(c2c[nH]c3ccccc23)CC(C)(C)c2c1[nH]c1ccccc21 (stereo unspecified) ; its TGI = > 100 µM

Form: compound = N#Cc1ccc(/C=C(/C(=O)c2ccccc2)c2ccccc2)cc1 ; TGI = 41.1 µM

###

test system: MDA-MB-231 breast; assay: NCI tumour cell line growth inhibition, 48 h
List of TGI values.
Give the value in µM but do not write µM after it.

compound	measurement.target	TGI [µM]
COC1CC(OC2CCC3(C)C(=CCC4C3C(OC(C)=O)C(OC(=O)CC(C)C)C3(C)C(C(C)=O)CCC43O)C2)OC(C)C1OC1CC(OC)C(OC2CC(OC)C(OC3OC(C)C(O)C(OC)C3O)C(C)O2)C(C)O1 (stereo unspecified)	MDA-MB-231 breast	65.6
C[N+](C)(C)CC1CCC(C[N+](C)(C)C)C1=O (stereo unspecified)	MDA-MB-231 breast	41.3
c1ccc(CN2CCc3[nH]c4ccccc4c3C2)cc1	MDA-MB-231 breast	48.9
CC(C)(C)OC(=O)N1CC(CCl)c2ccc(O)cc21 (stereo unspecified)	MDA-MB-231 breast	11.4
O=C(/C=C/c1ccc(OCc2ccccc2)cc1)NCc1ccc(C(=O)NCCc2c[nH]c3ccccc23)cc1	MDA-MB-231 breast	61.1
O=[N+]([O-])c1ccc(-n2nc3ccc4c(no[n+]4[O-])c3[n+]2[O-])c([N+](=O)[O-])c1	MDA-MB-231 breast	4.64

According to the records, this compound O=C1c2c(Br)sc(Br)c2[C@@H](Cl)[C@H]1Cl displays TGI of 36.8

The measured TGI associated with COCCOCCOCc1n(Cc2ccc3ccccc3c2)c2ccccc2[n+]1Cc1ccc2ccccc2c1 reads 1.64

The compound listed as Cc1cn(C2C=CC(COP(=O)(OCc3ccc([N+](=O)[O-])o3)N(C)CCCCCl)O2)c(=O)[nH]c1=O (stereo unspecified) has a reported TGI of 25.9

###

Each item that follows carries a reported TGI.
test system: MCF7 breast; assay: NCI tumour cell line growth inhibition, 48 h

Briefly, TGI measured for Cc1ccc(/C=C/C(=N/NC(=O)N/N=C(/C=C/c2ccc(C)cc2)C(C)C)C(C)C)cc1 : > 10 µM

The recorded TGI for entry C[N+](C)(C)CC1CCC(C[N+](C)(C)C)C1=O (stereo not given) equals 6.05 µM

Sure, the documented TGI for Cc1ccc(S(=O)(=O)N2CCCSCCSCCCN(S(=O)(=O)c3ccc(C)cc3)CC2)cc1 is > 100 µM

Noted for CN(C)C1(N(C)C)Oc2c(c(=O)n(C)c(=O)n2C)C(c2ccc(C(F)(F)F)cc2)C1(F)F (stereo not given) : its TGI reads > 100 µM

Reported TGI ( Nc1c(C(=O)Nc2ccccn2)sc2nc3c(cc12)C(O)CCC3 (stereo not given) ) = > 50 µM

###

test system: SF-539 CNS; experiment: NCI tumour cell line growth inhibition, 48 h
outcome.measure: TGI (µM)
The reply should contain only the number, in µM.

// field: TGI; key: N#Cc1cc2c(cc1C#N)/C(=N\c1cccc(N)n1)N=C2Nc1cccc(N)n1 ; value = 43.2

Notebook: C=C1c2ccccc2C(=O)c2c1c1c(C(=O)OC)c(OC(=O)OCc3ccc([N+](=O)[O-])cc3)ccc1n2Cc1ccccc1 , TGI read as 32.3

// sample Cc1coc2c1C(=O)C(=O)c1ccccc1-2 , its TGI was 2.88

###

system: UACC-257 melanoma; assay: NCI tumour cell line growth inhibition, 48 h
outcome.measure: TGI (µM)
The response must be a number in µM with no trailing unit.

compound	TGI, µM
CN(C)C(=O)OCc1nc2c(N3CCOCC3)nc(-c3ccccc3)nc2n1C	2.93

Now look at this entry.
Per the record, CCC/C=C\C=C\C1(NS(=O)(=O)c2ccc(C)cc2)CCC(C(C)(C)C)CC1 (stereo not given) has TGI of 39

###

tested on: PC-3 prostate; assay: NCI tumour cell line growth inhibition, 48 h
outcome.measure: TGI

The recorded TGI for COC(=O)c1c(C)[nH]c2c1C(=O)C(=O)c1nc(C)c(C)nc1-2 is 29.3 µM

Looking up O=C(O)Cc1ccc(Nc2nc3ccccc3nc2C(=O)O)cc1 , I see its TGI listed as > 100 µM

Item: Nc1ncnc2c1ncn2C1OC(COS(N)(=O)=O)C(O)C1O (stereo unspecified) | TGI: 0.0587 µM

# TGI of c1csc(-c2nccc3c2[nH]c2ccccc23)c1 = 61.3 µM

Sure, the documented TGI for NC(=O)CN1CC(C2=C(O)CN(CC(N)=O)C2=O)=CC1=O is > 100 µM

Lab note: measured TGI of O=C1/C=C/[C@@H](O)[C@@H]2C[C@@H](O)C[C@H]2/C=C/CCC[C@H](CCc2ccc3ncccc3c2)O1 was > 36 µM

Looking up NCCCOc1cc2ccccc2cc1C(=O)Nc1ccc(Cl)cc1OC(=O)c1cc2ccccc2cc1OCCCN , I found its TGI recorded as 1.58 µM

# TGI (compound: COc1cc(-n2cc(-c3ccccc3)[nH]c2=O)cc(OC)c1OC ) is > 100 µM

Documented TGI of COC(=O)CCC1=NCC(C)(C)O1 : > 10 µM

// TGI value for CCOc1ccccc1NC(=O)C(=O)C(/C(=N/N)C(=O)OC)c1nc2ccc([N+](=O)[O-])cc2[nH]c1=O (stereo unspecified) : > 100 µM

TGI for CC(C)(C)OC(=O)N1CC(CCl)c2ccc(O)cc21 (stereo unspecified) is 5.51 µM

The recorded TGI for entry CCOC(=O)c1nc2ccccc2nc1NCc1ccc(OC)c(OC)c1 equals > 100 µM

Field TGI (entry O=S(=O)(O)c1cc(S(=O)(=O)O)c2cc(N=Nc3c(O)ccc4ccccc34)ccc2c1 ) reads > 100 µM

Per the records, this compound ( Cc1c[nH]c(C(=O)O)c1-c1cccn1-c1ccc(Cl)cc1[N+](=O)[O-] ) has TGI equal to > 100 µM

Per the records, this compound ( OB(O)c1ccccc1C#Cc1ccccc1B(O)O ) has TGI equal to > 100 µM

Value of TGI reported for the compound Cc1ccc(C(=O)NCCCOc2ccc(N3C(N)=NC(N)=NC3(C)C)cc2Cl)cc1S(=O)(=O)F is > 100 µM

Per the record, C=C1C(=O)OC2C1C(OC(=O)/C(C)=C/C)CC(O)(CCl)C1C(O)C=C(C)C21O (stereo unspecified) has TGI of > 51.3 µM

Consider O=C(Nn1c(-c2cccs2)nc2ccc(I)cc2c1=O)c1ccccc1 . Its measured TGI is > 100 µM

These entries and their values trace back to PubChem BioAssay (NCI).
